target: UniProt P35270; test: biochemical; assay type: binding; details: terbium labelled SNAP-hSPR / SSZ labelled SNAP-EGFP; read-out: hTR-FRET IC50
measurement name: IC50
Kindly format the answer as number then unit.

Cc1cc(=O)[nH]c(-n2ncc(C(=O)N3CCc4ccccc4C3)c2C)n1 ... 7 nM

Ask: Please look up its IC50: Cc1c(C(=O)N2CCN3CCC[C@H]3C2)cnn1-c1nn2cccc2c(=O)[nH]1
Reply: 4 nM

Ask: Now consider COc1ccc(S(=O)(=O)N2CCN(C(=O)c3cnn(-c4nn5cccc5c(=O)[nH]4)c3C)CC2)cc1 and answer again.
Reply: 2 nM

Ask: Another compound to check: Cc1c(C(=O)N2CCN(C(=O)C3CC3)CC2)cnn1-c1nn2cccc2c(=O)[nH]1
Reply: 3 nM

====

For SNAP-hSPR (sepiapterin reductase, SPR) (Homo sapiens), measured pIC50 is reported for the entries below.
Lab note — pIC50 values are minus log10 of concentrations in M.

Cc1c(C(=O)N2CCC3OCCCC3C2)cnn1-c1nc2ccsc2c(=O)[nH]1 (stereo not drawn) [Q-0557] ... 8.10
Cc1c(C(=O)N2CCC(C)CC2C)cnn1-c1nc2ccsc2c(=O)[nH]1 (stereo not drawn) [Q-0400] ... 8.40
O=C(c1cnn(-c2nn3cccc3c(=O)[nH]2)c1)N1CCN2CCC[C@@H]2C1 [Q-0703] ... 8.40
Cc1c(C(=O)N2CCC(C(C(F)F)C(F)(F)F)CC2)cnn1-c1nn2cccc2c(=O)[nH]1 (stereo not drawn) [Q-1131] ... 9.00
Cc1c(C(=O)N2CCC(C3(C(F)(F)F)CC3)CC2)cnn1-c1nn2cccc2c(=O)[nH]1 [Q-0944] ... 9.00
Cc1c(C(=O)O)nnn1-c1nn2cccc2c(=O)[nH]1 [Q-0779] ... 7.70
Cc1c(C(=O)N2CCN3CC(F)(F)C[C@H]3C2)cnn1-c1nn2cccc2c(=O)[nH]1 [Q-0906] ... 8.52
O=C(c1cnn(-c2nc3c(c(=O)[nH]2)CCC3)c1)N1CCC2(CC1)CC2 [Q-0705] ... 8.70

Please turn your attention to the following entry.
Ask: pIC50 of COC1CCCN(C(=O)c2cnn(-c3nc4c(c(=O)[nH]3)CCC4)c2C)C1 (stereo not drawn) [Q-0482] on SNAP-hSPR (sepiapterin reductase, SPR) (Homo sapiens)?
Reply: 8.10

====

target: SNAP-hSPR (sepiapterin reductase, SPR) (Homo sapiens, UniProt P35270)
Sequence (P35270 whole entry): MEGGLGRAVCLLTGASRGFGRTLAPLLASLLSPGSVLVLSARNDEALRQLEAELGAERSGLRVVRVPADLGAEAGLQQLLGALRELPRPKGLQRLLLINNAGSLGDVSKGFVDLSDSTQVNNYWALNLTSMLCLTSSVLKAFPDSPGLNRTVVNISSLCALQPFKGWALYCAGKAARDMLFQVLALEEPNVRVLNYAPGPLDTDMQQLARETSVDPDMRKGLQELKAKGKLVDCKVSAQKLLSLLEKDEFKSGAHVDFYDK
IC50 reference
Expressed in nM, but write only the number.

# annotated cases, reported IC50 shown
Cc1c(C(=O)N2CC3[C@@H](C2)CN3C(=O)OC(C)(C)C)cnn1-c1nn2cccc2c(=O)[nH]1 (stereo partly shown) ... 3
Cc1c(C(=O)N2CC(O)(C3CC3)C2)cnn1-c1nn2cccc2c(=O)[nH]1 ... 2
Cc1c(C(=O)N2CCN(C3COC3)CC2)cnn1-c1nn2cccc2c(=O)[nH]1 ... 3

Next up:
Ask: Query: IC50; subject: Cc1c(C(=O)N2CCc3ccccc3C2)cnn1-c1nc2ccsc2c(=O)[nH]1
Reply: 2

====

molecular target: SNAP-hSPR (sepiapterin reductase, SPR) (Homo sapiens, UniProt P35270)
Measured IC50 values are reported for all entries that follow.
Response body: numeric value in nM, unit text excluded.

CN(C(=O)OC(C)(C)C)[C@@H]1CCN(C(=O)c2cnn(-c3nn4cccc4c(=O)[nH]3)c2)C1 ... 1

Ask: Which value of IC50 has been reported for Cc1c(C(=O)N2CCc3nc(-c4ccccc4Cl)sc3C2)cnn1-c1nn2cccc2c(=O)[nH]1 in the records?
Reply: 7

Ask: And the next one, C=C(C1CCN(C(=O)c2cnn(-c3nc4c(c(=O)[nH]3)CCC4)c2C)CC1)C(F)(F)F ?
Reply: 1

Ask: Item: Cc1c(C(=O)N2CCC3(CC2)OCCO3)cnn1-c1nn2cccc2c(=O)[nH]1
Reply: 2

Ask: Now this one: Cc1c(C(=O)N2CCC(n3cccc3C(F)(F)F)CC2)cnn1-c1nn2cccc2c(=O)[nH]1
Reply: 2

Ask: Also check Cc1c(C(=O)N2CC(N3CCC(F)(F)C3)C2)cnn1-c1nc2cc[nH]c2c(=O)[nH]1
Reply: 100

Ask: Same thing, different compound: Cc1c(C(=O)N2CCC3(CCNC3=O)CC2)cnn1-c1nn2cccc2c(=O)[nH]1
Reply: 2

Ask: # iterate: Cc1c(C(=O)N2CCN(C3CCCC3(F)F)CC2)cnn1-c1nn2cccc2c(=O)[nH]1 (centres unmarked)
Reply: 1
